TEST NAME: inhibitors of TNFa-induced NFkB p65 translocation, primary screen, imaging, HUVEC, MLSMR starter and 10KST1 sets (AID 438);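 further: compound added about 3h40 before a 20 min TNFalpha stimulation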
TEST CONTEXT: HUVEC TNFa-induced p65 nuclear translocation; measured here: nuclei count (cytotoxicity indicator), at 2.08 µM
Overview of recorded cell count for various compounds
OBSERVED PROPERTY: cell count

COMPOUND: O=C(O)C(Cc1c[nH]c2ccccc12)NS(=O)(=O)c1cccc2nsnc12 (stereo unspecified)
OBSERVED: 564

COMPOUND: C=CCOC(=O)C1=C(C)OC(N)=C(C#N)C1c1ccoc1 (stereo unspecified)
OBSERVED: 564

COMPOUND: CCCOc1ccc(/C(O)=C2/C(=O)C(=O)N(CCCN3CCOCC3)C2c2ccncc2)cc1 (stereo unspecified)
OBSERVED: 398

COMPOUND: CC1(C)Cc2c(C#N)c(NCCN3CCOCC3)nc(-c3ccco3)c2CO1
OBSERVED: 579

COMPOUND: CCNCc1cc2cc(C)ccc2[nH]c1=O
OBSERVED: 596

COMPOUND: CN=c1sc2ccccc2n1CC(O)COc1ccccc1 (stereo unspecified)
OBSERVED: 462

COMPOUND: CC(=O)O[C@H]1C(=O)[C@]2(C)[C@H]([C@H](OC(=O)c3ccccc3)[C@]3(O)C[C@H](OC(=O)[C@H](O)[C@@H](NC(=O)c4ccccc4)c4ccccc4)C(C)=C1C3(C)C)[C@]1(OC(C)=O)CO[C@@H]1C[C@@H]2O
OBSERVED: 508

COMPOUND: CCC1CCCCN1c1nc(-c2ccncc2)nc2ccccc12 (stereo unspecified)
OBSERVED: 503

COMPOUND: C=CCOc1nc2c(c(=O)n(C)c(=O)n2C)n1Cc1c(Cl)cccc1Cl
OBSERVED: 556

COMPOUND: CCC(C(=O)Nc1ncn[nH]1)(C(F)(F)F)C(F)(F)F
OBSERVED: 692

COMPOUND: CC(C)Cn1nc(NC(=O)C(C)(C)C)c2cc3ccccc3nc21
OBSERVED: 366
